TEST_DETAILS: Quantitative High-Throughput drug screen in 47 multiple myeloma cell lines against the NCATS MIPE library collection: AMO1_DSMZ cell viability assay (AID 1918927; also: nearly all actives have a fitted effect of over 30% in size)
PARTICULARS: AMO1 myeloma cells viability, CellTiter-Glo ATP luminescence, 48 h; series mostly up to 45.8 µM
Inconclusive results are not listed. Activity calls are given as the source filed them. Calls follow the shape of the dose curve; as a rule, active = well fitted cell-killing curve with a large enough effect; inconclusive = small, poorly fitted or top-dose-only effect, or effect the other way; inactive = no such curve, though single readings can be large or run the other way.
Outcome codes: active, inactive

[[record]]
compound = "CN(C)Cc1ccc(-c2nc3cccc4c3n2CCNC4=O)cc1"
category_label = "active"

[[record]]
compound = "O=c1c(-c2ccc(O)cc2)coc2cc(O[C@@H]3O[C@H](CO)[C@H](O)[C@H](O)[C@H]3O)ccc12"
category_label = "inactive"

[[record]]
compound = "O=C(CCN1CCN(C(=O)OCc2cc(Cl)cc(Cl)c2)CC1)c1ccc2[nH]c(=O)oc2c1"
category_label = "active"

[[record]]
compound = "C=C1C(=O)[C@@]23C(CC[C@@H]1[C@H]2O)[C@@]12CO[C@]3(O)[C@@H](O)[C@@H]1C(C)(C)CC[C@@H]2O (some centres undefined)"
category_label = "active"


// provenance: PubChem BioAssay (NCATS)
